What Actual in vitro activity class was measured for each of the following?
- Test system: MCF-7/6 mammary carcinoma cells
- Measurement description: chick heart invasion assay
- Format: cell-based, human
- Set-up: unit not given here
- Measurement context: compounds 37-51, Table 11

Enquiry: For the compound shown here, "COc1cc(OC)c(/C=C/C(=O)c2c(OC)cccc2OC)c(OC)c1" , give the reported Actual in vitro activity class.
Return: 0 (about 1)

Enquiry: What does the data say about its Actual in vitro activity class? Entry: "COc1ccc(/C=C/C(=O)c2ccccc2)cc1"
Return: 1 (about 10)

Enquiry: Suppose we examine the compound "COc1cc(OC)c(C(=O)/C=C/c2cc(OC)c(OC)cc2OC)c(OC)c1" ; what Actual in vitro activity class value has been reported?
Return: 1 (about 10)

Enquiry: Could you tell me which Actual in vitro activity class is on file for "COc1ccc(C(=O)/C=C/c2cc(OC)c(OC)cc2OC)cc1" ?
Return: 0 (about 1)

Enquiry: If you can, please state the reported Actual in vitro activity class value of "COc1ccc(C(=O)/C=C/c2c(OC)cc(OC)cc2OC)cc1" .
Return: −1 (about 0.1)

Enquiry: Can you look up the measured Actual in vitro activity class of "COc1ccc(C(=O)/C=C/c2ccccc2)cc1" for me?
Return: 1 (about 10)

Enquiry: Query: Actual in vitro activity class; subject: "O=C(/C=C/c1ccc(F)cc1)c1ccc(F)cc1"
Return: 1 (about 10)

Enquiry: Give its Actual in vitro activity class value. Item: "COc1ccc(C(=O)/C=C/c2ccc(F)cc2)cc1"
Return: 0 (about 1)

Enquiry: # get_value(readout='Actual in vitro activity class', item= "COc1ccc(/C=C/C(=O)c2ccc(OC)cc2)cc1" )
Return: 1 (about 10)

Enquiry: Given the compound "COc1cc(OC)c(OC)cc1/C=C/C(=O)c1c(OC)cccc1OC" , what is its reported Actual in vitro activity class?
Return: 1 (about 10)

Enquiry: Which Actual in vitro activity class is listed for "COc1cc(C(=O)/C=C/c2ccc(F)cc2)cc(OC)c1OC" ?
Return: −2 (about 0.01)

Enquiry: Recorded Actual in vitro activity class for "COc1ccc(C(=O)/C=C/c2cccc(OC)c2)cc1" , please?
Return: 0 (about 1)
